- targetOfAssay: T1, MipZ L248A (Caulobacter crescentus, UniProt Q9A6C9 1-278, L248A)
- T1 sequence: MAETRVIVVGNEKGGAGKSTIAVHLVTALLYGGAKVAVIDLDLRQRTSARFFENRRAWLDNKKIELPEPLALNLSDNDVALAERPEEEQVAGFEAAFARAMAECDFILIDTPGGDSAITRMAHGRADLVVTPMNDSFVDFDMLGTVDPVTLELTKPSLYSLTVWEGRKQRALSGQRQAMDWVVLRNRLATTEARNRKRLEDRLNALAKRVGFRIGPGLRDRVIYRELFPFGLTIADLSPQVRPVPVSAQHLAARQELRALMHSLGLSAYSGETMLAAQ
- testDetails: MST; EMSA: 10 mM HEPES/NaOH pH 7.2, 150 mM NaCl, 10 mM MgCl2, 0.05% Tween 20, 0.46 mM ATPgS, room temp; BLI: 50 mM HEPES/NaOH pH 7.2, 50 mM NaCl, 5 mM MgCl2, 0.1 mM
- testParameters: protein: recombinant; tags: C-terminal His6 (pET21a); chain copies: 2; label: Cy3 (5') on strand 1; blunt
propertyMeasured: Kd

# binder, propertyMeasured, valueMeasured
data = [
    ("rand-Cy3/rand-rev 26 bp (dsDNA) DNA 1: GAGGCAGACTAGATCTTCTAGTTCGG DNA 2: CCGAACTAGAAGATCTAGTCTGCCTC", "Kd", "< 10 µM"),
]

The reported numbers originate from paper PMC7229837.
